biological target: His-tagged FcγRIIIa recombinant protein (UniProt P08637); assay: SPR (Biacore X100); His-tagged FcγRIIIa captured on anti-His antibody CM5 chip, antibody as analyte; 1:1 Langmuir fit
quantityMeasured: Kd (nM)

In [3]: df
Out[3]:
                                  substance  quantitymeasured  uom  measvalue
0  GAZYVA (obinutuzumab), commercial afucosylated anti-CD20 antibody                Kd   nM       39.9
